Reported values of inhibition at 100 µM for individual entries
Experiment: Antiviral activity against Influenza A virus (A/WSN/33(H1N1)) infected in MDCK cells assessed as inhibition of virus-induced cytopathic effect at 100 uM incubated for 40 hrs by CellTiter-Glo assay
Type: functional, Influenza A virus (A/WSN/1933(H1N1))
Only the number, expressed in %, is required.

Completed entries (count: 3):
COC(=O)[C@@]1(OCCOC(=O)[C@]23CCC(C)(C)C[C@@H]2C2=CC[C@@H]4[C@@]5(C)CC[C@H](O)C(C)(C)[C@@H]5CC[C@@]4(C)[C@]2(C)C[C@H]3O)C[C@H](O)[C@@H](NC(C)=O)[C@H]([C@H](O)[C@H](O)CO)O1	-11.8
COC(=O)[C@@]1(OCCn2cc(CNC(=O)[C@]34CCC(C)(C)C[C@@H]3C3=CC[C@@H]5[C@@]6(C)CC[C@H](O)C(C)(C)[C@@H]6CC[C@@]5(C)[C@]3(C)C[C@H]4O)nn2)C[C@H](OC(C)=O)[C@@H](NC(C)=O)[C@H]([C@H](OC(C)=O)[C@@H](COC(C)=O)OC(C)=O)O1	15.3
COC(=O)[C@@]1(n2cc(CNC(=O)[C@]34CCC(C)(C)C[C@@H]3C3=CC[C@@H]5[C@@]6(C)CC[C@H](O)C(C)(C)[C@@H]6CC[C@@]5(C)[C@]3(C)C[C@H]4O)nn2)C[C@H](O)[C@@H](NC(C)=O)[C@H]([C@H](O)[C@H](O)CO)O1	-3.6

Let us move to another entry and its inhibition at 100 µM.
Specify reported inhibition at 100 µM for the compound shown: "C=C(C)[C@@H]1CC[C@]2(C(=O)NCc3cn([C@]4(C(=O)OC)C[C@H](O)[C@@H](NC(C)=O)[C@H]([C@H](O)[C@H](O)CO)O4)nn3)CC[C@]3(C)[C@H](CC[C@@H]4[C@@]5(C)CC[C@H](O)C(C)(C)[C@@H]5CC[C@]43C)[C@@H]12"
-8.1

* * *

Reported values of viability at 40 h, 100 µM for individual entries
Assay: Cytotoxicity against MDCK cells assessed as cell viability at 100 uM after 40 hrs by CellTiter-Glo assay relative to control
Assay type: cell-based, Canis lupus familiaris
Conditions: dog, read-out: Activity

Completed entries (count: 3):
COC(=O)[C@@]1(n2cc(CNC(=O)[C@]34CCC(C)(C)C[C@@H]3C3=CC[C@@H]5[C@@]6(C)CC[C@H](O)C(C)(C)[C@@H]6CC[C@@]5(C)[C@]3(C)C[C@H]4O)nn2)C[C@H](O)[C@@H](NC(C)=O)[C@H]([C@H](O)[C@H](O)CO)O1	104%
C=C(C)[C@@H]1CC[C@]2(C(=O)OCCO[C@]3(C(=O)OC)C[C@H](OC(C)=O)[C@@H](NC(C)=O)[C@H]([C@H](OC(C)=O)[C@@H](COC(C)=O)OC(C)=O)O3)CC[C@]3(C)[C@H](CC[C@@H]4[C@@]5(C)CC[C@H](O)C(C)(C)[C@@H]5CC[C@]43C)[C@@H]12	80.7%
COC(=O)[C@@]1(OCCOC(=O)[C@]23CCC(C)(C)C[C@@H]2C2=CC[C@@H]4[C@@]5(C)CC[C@H](O)C(C)(C)[C@@H]5CC[C@@]4(C)[C@]2(C)CC3)C[C@H](OC(C)=O)[C@@H](NC(C)=O)[C@H]([C@H](OC(C)=O)[C@@H](COC(C)=O)OC(C)=O)O1	90.1%

Let us move to another entry and its viability at 40 h, 100 µM.
Specify reported viability at 40 h, 100 µM for the compound shown: "COC(=O)[C@@]1(OCCOC(=O)[C@]23CC[C@@H](C)[C@H](C)[C@@H]2C2=CC[C@@H]4[C@@]5(C)CC[C@H](O)C(C)(C)[C@@H]5CC[C@@]4(C)[C@]2(C)CC3)C[C@H](O)[C@@H](NC(C)=O)[C@H]([C@H](O)[C@H](O)CO)O1"
0.1%
